procedureDetails: LNP size and polydispersity index (PDI) by dynamic light scattering
Type: physicochemical
particulars: LNP with cirRNA (SEQ ID NO: 1); in nm (unit assumed)
measurementName: Size

- compound: "CCCCCCCCCCC(CCCCCCCC)COC(=O)CCCCCN(CCCCCC(=O)OCC(CCCCCCCC)CCCCCCCCCC)CCOC(=O)NCCN1CCN(C)CC1 (stereo not shown) [Lipid 173]"
  obsValue: 73.65
- compound: "CCCCCCCCCCC(CCCCCCCC)COC(=O)CCCCCN(CCCCCC(=O)OCC(CCCCCCCC)CCCCCCCCCC)CCOC(=O)NCCCN(CC)CC (stereo not shown) [Lipid 172]"
  obsValue: 67.53
- compound: "CCCCC/C=C\\CCOC(=O)CCCCCN(CCCCCCCCOC(=O)C(CCCCCC)CCCCCCCC)CCOC(=O)NCCN(C)C (stereo not shown) [Lipid 189]"
  obsValue: 84.04
- compound: "CCCCC/C=C\\CCOC(=O)CCCCCN(CCCCCCCCOC(=O)C(CCCCCC)CCCCCCCC)CCOC(=O)NCCN1CCCC1 (stereo not shown) [Lipid 191]"
  obsValue: 79.79

* * *

procedureDetails: LNP zeta potential (Zetasizer)
Format: physicochemical
particulars: LNP with cirRNA (SEQ ID NO: 1)
Protocol: Ionizable lipid, DSPC, Cholesterol and DMG-PEG 2000 were mixed at a molar ratio of 50:10:38.5:1.5 in absolute ethanol. Circular RNA and linear mRNA payloads were suspended in 25 mM Acetate Buffer (pH 4.5). […] The LNP size and polydispersity index (PDI), determined by dynamic light scattering (DLS), and zeta potential were measured by a Zetasizer machine (Malvern). […]
measurementName: Zeta (mV)

Example results:
- compound: "CCCCCCCOC(=O)CCCCCCCCCN(CCCCCCCCCC(=O)OCCCCCCC)CCOC(=O)NCCN1CCCC1"
  measurementName: "Zeta (mV)"
  obsValue: 9.53
- compound: "CCCCC/C=C\\C/C=C\\CCCCCCCCN(CCCCCCCC/C=C\\C/C=C\\CCCCC)CCOC(=O)NCCN1CCOCC1"
  measurementName: "Zeta (mV)"
  obsValue: "−3.556"
- compound: "CCCCCCCCCCCOC(=O)CCCCCN(CCCCCC(=O)OCCCCCCCCCCC)CCOC(=O)NCCN1CCCCC1"
  measurementName: "Zeta (mV)"
  obsValue: 17.84
- compound: "CCCCC/C=C\\C/C=C\\CCCCCCCCN(CCCCCCCC(=O)OC(CCCCCCCC)CCCCCCCC)CCOC(=O)NCCCN(C)C"
  measurementName: "Zeta (mV)"
  obsValue: 11.37

I = CCCCCCCCCCC(CCCCCCCC)COC(=O)CCCCCN(CCCCCC(=O)OCC(CCCCCCCC)CCCCCCCCCC)CCOC(=O)NCCCN(CC)CC (stereo not shown)
II = CCCCCCCCCCCOC(=O)CCCCCN(CCCCCC(=O)OCCCCCCCCCCC)CCOC(=O)NCCCN(C)C
III = CCCCC/C=C\C/C=C\CCCCCCCCN(CCCCCCCC/C=C\CCCCCCCC)CCOC(=O)NCCN1CCN(C)CC1
Ask | Your job: order these 3 records by Zeta (mV), ascending. Give me the labels in the order the question wants.
Reply | I, III, II

* * *

Here the recorded In vitro Viability HepG2 is given for each entry.
System: Hep G2 cells
procedureDetails: In vitro toxicity (CellTiter-Glo cell viability), Hep G2;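 further: percent of untreated cells luminescence signal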
Type: cell-based
particulars: cirRNA (SEQ ID NO: 1) LNPs; Hep G2 cells
Kindly answer with a numeric value in %, unit omitted.

- compound: "CCCCCCCCCCCOC(=O)CCCCCN(CCCCCCCCOC(=O)C(CCCCCC)CCCCCCCC)CCOC(=O)NCc1ncc[nH]1 (stereo not drawn) [Lipid 221]"
  obsValue: 87
- compound: "CCCCC/C=C\\CCOC(=O)CCCCCN(CCCCCCCCOC(=O)C(CCCCCC)CCCCCCCC)CCOC(=O)NCCN1CCCCC1 (stereo not drawn) [Lipid 192]"
  obsValue: 94
- compound: "CCCCCCCCCC(=O)OCCCCCCCN(CCCCCCCCOC(=O)C(CCCCCC)CCCCCCCC)CCCOC(=O)NCCCn1ccnc1 (stereo not drawn) [Lipid 356]"
  obsValue: 112
- compound: "CCCCCCCCC(CCCCCCCC)OC(=O)CCCCCCCN(CCCCCCCCOC(=O)C(CCCCCC)CCCCCCCC)CCOC(=O)NCCN1CCCCC1 (stereo not drawn) [Lipid 149]"
  obsValue: 123
- compound: "CCCCCCCCCCC(CCCCCCCC)COC(=O)CCCCCN(CCCCCC(=O)OCC(CCCCCCCC)CCCCCCCCCC)CCOC(=O)NCCN1CCCC1 (stereo not drawn) [Lipid 168]"
  obsValue: 55

We next turn to a different compound, shown below.
Ask | Form: Entry = CCCCCCCCCCCOC(=O)CCCCCN(CCCCCCCCOC(=O)C(CCCCCC)CCCCCCCC)CCOC(=O)NCCN1CCOCC1 (stereo not drawn) [Lipid 223] | System = Hep G2 cells | In vitro Viability HepG2 = ____
Reply | 92

* * *

procedureDetails: LNP zeta potential (Zetasizer)
Type: physicochemical
particulars: LNP with cirRNA (SEQ ID NO: 1)
measurementName: Zeta (mV)

Sample records with Zeta (mV):
- molecule: "CCCCCCCCC(CCCCCC)C(=O)OCCCCCCCCN(CCCCCCCCOC(=O)C(CCCCCC)CCCCCCCC)CCCOC(=O)NCCCN(C)C (centres unmarked) [Lipid 378]"
  measurementName: "Zeta (mV)"
  obsValue: 6.729
- molecule: "CCCCCCCCCCC(CCCCCCCC)COC(=O)CCCCCN(CCCCCC(=O)OCC(CCCCCCCC)CCCCCCCCCC)CCCOC(=O)NCc1ncc[nH]1 (centres unmarked) [Lipid 365]"
  measurementName: "Zeta (mV)"
  obsValue: "−2.341"

a = CCCCCCCCCC(=O)OCCCCCCCCN(CCCCCCCCOC(=O)CCCCCCCCC)CCOC(=O)NCc1ncc[nH]1 [Lipid 203]
b = CCCCCCCCC(CCCCCCCC)OC(=O)CCCCCCCN(CCCCCCCCOC(=O)C(CCCCCC)CCCCCCCC)CCOC(=O)NCCN1CCCCC1 (centres unmarked) [Lipid 149]
Ask | Between these two entries, a and b , state which has the higher Zeta (mV). Please identify the chosen entry by its label.
Reply | b
(b: 9.196 mV, a: −0.09389 mV)

a = CCCCC/C=C\C/C=C\CCCCCCCCN(CCCCCCCC(=O)OC(CCCCCCCC)CCCCCCCC)CCOC(=O)NCc1ncc[nH]1 [Lipid 132]
b = CCCCCCCCCCC(CCCCCCCC)COC(=O)CCCCCN(CCCCCC(=O)OCC(CCCCCCCC)CCCCCCCCCC)CCOC(=O)NCCN1CCCCC1 (centres unmarked) [Lipid 169]
Ask | Between the two listed entries a and b , which has its Zeta (mV) at the higher number? # respond with the chosen item's label
Reply | a

P = CCCCC/C=C\C/C=C\CCCCCCCCN(CCCCCC(=O)OCC(CCCCCCCC)CCCCCCCCCC)CCOC(=O)NCCN(C)C (centres unmarked) [Lipid 75]
Q = CCCCC/C=C\CCOC(=O)CCCCCN(CCCCCCCCOC(=O)C(CCCCCC)CCCCCCCC)CCOC(=O)NCCN1CCOCC1 (centres unmarked) [Lipid 188]
Ask | Lower value of Zeta (mV) belongs to which: P or Q ? Give the chosen item's label as your response.
Reply | Q

1 = CCCCC/C=C\C/C=C\CCCCCCCCN(CCCCCCCC(=O)OC(CCCCCCCC)CCCCCCCC)CCOC(=O)NCCN1CCN(C)CC1 [Lipid 135]
2 = CCCCC/C=C\C/C=C\CCCCCCCCN(CCCCCC(=O)OCC(CCCCCCCC)CCCCCCCCCC)CCOC(=O)NCCN1CCOCC1 (centres unmarked) [Lipid 79]
Ask | // returns 1 or 2 , whichever has the lower Zeta (mV) Give the chosen item's label as your response.
Reply | 2
(2: −2.908 mV, 1: 8.469 mV)

P = CCCCCCCCCC(=O)OCCCCCCCN(CCCCCCCCOC(=O)C(CCCCCC)CCCCCCCC)CCCOC(=O)NCCCN(C)C (centres unmarked) [Lipid 355]
Q = CCCCCCCCCCC(CCCCCCCC)COC(=O)CCCCCN(CCCCCC(=O)OCC(CCCCCCCC)CCCCCCCCCC)CCOC(=O)NCCN1CCOCC1 (centres unmarked) [Lipid 174]
R = CCCCCCCCCC(=O)OCCCCCCCN(CCCCCCCCOC(=O)C(CCCCCC)CCCCCCCC)CCCOC(=O)NCc1ncc[nH]1 (centres unmarked) [Lipid 360]
Ask | Sort the molecules on Zeta (mV); start with the lowest figure. Your reply should list the labels following the order given in the request.
Reply | Q, R, P
(Q: −4.35 mV, R: −2.27 mV, P: 8.299 mV)

P = CCCCCCCC/C=C\CCCCCCCCN(CCCCCCCCOC(=O)C(CCCCCC)CCCCCCCC)CCOC(=O)NCc1ncc[nH]1 (centres unmarked) [Lipid 212]
Q = CCCCCCCCC(CCCCCC)C(=O)OCCCCCCCCN(CCCCCCCCOC(=O)C(CCCCCC)CCCCCCCC)CCCOC(=O)NCCN1CCCCCC1 (centres unmarked) [Lipid 383]
Ask | Between these two entries, P and Q , state which has the higher Zeta (mV). Write down the label attached to your selection.
Reply | Q
(Q: −0.4606 mV, P: −3.175 mV)

1 = CCCCC/C=C\C/C=C\CCCCCCCCN(CCCCCC(=O)OCC(CCCCCCCC)CCCCCCCCCC)CCOC(=O)NCc1ncc[nH]1 (centres unmarked) [Lipid 76]
2 = CCCCCCCC/C=C\CCCCCCCCN(CCCCCCCCOC(=O)C(CCCCCC)CCCCCCCC)CCOC(=O)NCCN1CCN(C)CC1 (centres unmarked) [Lipid 214]
Ask | Hi there! Just curious which has the higher Zeta (mV) between 1 and 2 . Kindly give the label for the entry you pick.
Reply | 2
(2: 5.906 mV, 1: 0.03131 mV)

I = CCCCCCCCC(CCCCCC)C(=O)OCCCCCCCCN(CCCCCCCCOC(=O)C(CCCCCC)CCCCCCCC)CCCNCCCN(CC)CC (centres unmarked) [Lipid 385]
II = CCCCCCCCCCC(CCCCCCCC)COC(=O)CCCCCN(CCCCCC(=O)OCC(CCCCCCCC)CCCCCCCCCC)CCCOC(=O)NCCN1CCN(C)CC1 (centres unmarked) [Lipid 367]
III = CCCCCCCCCCC(CCCCCCCC)COC(=O)CCCCCN(CCCCCC(=O)OCC(CCCCCCCC)CCCCCCCCCC)CCCOC(=O)NCCN1CCC1 (centres unmarked) [Lipid 372]
Ask | Order field: Zeta (mV) | Direction: descending (largest first) Reply: labels, ordered per the request.
Reply | I, III, II

Reference for the values: patent US12691070B2
